Each recorded value in this set is attributed to PubChem BioAssay (NCATS).

tested on: C33A; assay: Primary qHTS to identify gynecologic anti-cancer compounds using libraries of approved drugs and bioactive compounds (AID 1345084); conditions: Gynecologic cancer cell panel viability, ATPlite luminescence, 48 h; series mostly up to 57.5 µM; note: nearly all actives have a fitted effect of over 55% in size
Records with an inconclusive call do not appear. Calls of active or inactive are those of the source. Calls come from the whole dose curve; as a rule, active = well fitted cell-killing curve with a large enough effect; inconclusive = small, poorly fitted or top-dose-only effect, or effect the other way; inactive = flat fitted curve, though single readings scatter.
Would you mind answering with one of these outcomes? active, inactive

Please review the entries below; each comes with its answer.
[[record]]
molecule = "COc1ccc(-c2c(C)c(C(=O)NN3CCCCC3)nn2-c2ccc(Cl)cc2Cl)cc1"
target_entity = "C33A"
group_label = "inactive"

[[record]]
molecule = "CN(Cc1ccc(C(=O)O)cc1)c1ccc(OCc2c(-c3c(Cl)cccc3Cl)noc2C2CC2)nc1C(F)(F)F"
target_entity = "C33A"
group_label = "inactive"

[[record]]
molecule = "CC1(C)SC2C(NC(=O)[C@H](C(=O)O)c3ccsc3)C(=O)N2C1C(=O)O (stereo partly specified)"
target_entity = "C33A"
group_label = "inactive"

[[record]]
molecule = "C=C(C)C(=O)O[C@H]1[C@H]2C(=C)C(=O)O[C@@H]2C[C@@H](C)/C=C\\C(=O)[C@](C)(O)[C@@H]1OC(C)=O"
target_entity = "C33A"
group_label = "active"

[[record]]
molecule = "O=[N+]([O-])c1ccc(-[n+]2nc(-c3ccccc3)nn2-c2ccc(I)cc2)cc1"
target_entity = "C33A"
group_label = "inactive"

[[record]]
molecule = "COc1cc(O)ccc1OCCNCC(O)COc1cccc2[nH]c3ccccc3c12 (stereo unspecified)"
target_entity = "C33A"
group_label = "inactive"


Task: Outcome? CC(C)CCC[C@@H](C)[C@H]1CC[C@H]2[C@@H]3CC=C4C[C@@H](OC(=O)NCCN(C)C)CC[C@]4(C)[C@H]3CC[C@]12C
Result: inactive

Task: Outcome? C=C1C(=O)O[C@@H]2[C@H]1[C@H](O)C[C@]1(C)[C@@H](O)CC=C(C)[C@@H]21
Result: inactive

Task: Outcome? Cc1c(C(=O)NCCCO)cnn1-c1nc(-c2cccc(C(F)(F)F)c2)cs1
Result: inactive

Task: Outcome? C[C@H](NC(=O)C(C)(C)Oc1ccc(C(F)(F)F)cn1)[C@@H](Cc1ccc(Cl)cc1)c1cccc(C#N)c1
Result: inactive

Task: Outcome? CC(C)N(CCCNC(=O)Nc1ccc(C(C)(C)C)cc1)C[C@H]1O[C@@H](n2cc(Br)c3c(N)ncnc32)[C@H](O)[C@@H]1O
Result: inactive

---

assay: qHTS for Inhibitors of Plasmodium falciparum (HB3) proliferation (AID 504318); note: nearly all actives have a fitted effect of over 60% in size; conditions: P. falciparum HB3 in erythrocytes, SYBR Green DNA, 72 h; series mostly up to 7.21 µM
Records with an inconclusive call do not appear. The source made the active and inactive calls. Calls follow the shape of the dose curve; as a rule, active = well fitted inhibition curve with a large enough effect; inconclusive = small, poorly fitted or top-dose-only effect; inactive = flat fitted curve, though single readings scatter.
Would you mind answering with one of these outcomes? yes for active, no for inactive

Please review the entries below; each comes with its answer.
[[record]]
molecule = "COc1cccc([C@H]2Oc3ccc(OC)cc3C(=NO[C@H](C)CN3CCCc4nc(C)c(C)cc43)[C@H]2O)c1"
group_label = "no"

[[record]]
molecule = "COCCN1C(=O)N[C@@H](CCc2ccccc2)[C@@H](C(=O)OC)[C@H]1C"
group_label = "no"

[[record]]
molecule = "CCCCC1=CC2=C(c3ccco3)C(=O)C(C)(OC(=O)c3ccc(OC)cc3)C(=O)C2=CN1CCCN(CC)CC (configuration not stated)"
group_label = "no"

[[record]]
molecule = "CCN(CC)CC(O)CN1CCCCc2nc(C)c(C)cc21 (configuration not stated)"
group_label = "no"

[[record]]
molecule = "COc1ccc2c(c1)[C@@]1(OCCC=C[C@@H]1C)C(=O)N2CC1CC1"
group_label = "no"

[[record]]
molecule = "C=CCOC(=O)N[C@H](C(C(=O)OC)=C(C)NCc1ccccc1)c1cccc(C(F)(F)F)c1"
group_label = "no"

[[record]]
molecule = "C[C@@H]1CC[C@H]2C(=O)O[C@H](CN=[N+]=[N-])CN2[C@@H]1c1ccc(Br)cc1"
group_label = "no"

[[record]]
molecule = "C=CCOC(=O)N[C@@H](c1cccc(OC)c1)[C@@H](C)C=CCC(=O)O"
group_label = "no"

[[record]]
molecule = "Cc1cc2c(c(=O)n1Cc1ccccc1)[C@H]1O[C@](CCCCN3C(=O)c4ccccc4C3=O)(Cc3c1ccc1ccccc31)O2"
group_label = "yes"

[[record]]
molecule = "CC(=O)OC[C@H]1O[C@H](CC=NO[C@H](C)CN2CCCCc3nc(C)c(C)cc32)C=C[C@@H]1OC(C)=O"
group_label = "no"


Task: Outcome? CC(=O)C1=C(C)N(Cc2ccccc2)C(=O)NC1CCc1ccccc1 (configuration not stated)
Result: no

Task: Outcome? CCCCCCCC1=CC2=CC(=O)C(C)(O)C(=O)C2=CN1CCCC (configuration not stated)
Result: no

Task: Outcome? COC(=O)CCC(=O)OC1(C)C(=O)C=C2C=C(C3CC3)OC=C2C1=O (configuration not stated)
Result: no

Task: Outcome? COC(=O)C1=C(C(=O)OC)[C@@H]2Nc3ccccc3[C@@]23C[C@@H](C(=O)OC)N(C(=O)NC(C)(C)C)C3=N1
Result: no

Task: Outcome? CCC12C=C(C=Cc3ccccc3)C(CC)(C1)C(c1ccccc1)CC2=O (configuration not stated)
Result: no

Task: Outcome? COC1=C[C@H](C(=O)NCCNC(C)=O)[C@H](C)[C@@H](c2ccccc2)CC1=O
Result: no

Task: Outcome? COC(=O)C[C@H]1c2ccccc2C2=C(C[C@@H](C)[C@H]3C(=O)NC(=O)[C@@H]23)N1C(=O)OC
Result: no

Task: Outcome? COc1ccc2c(c1)O[C@@H](c1ccc3c(c1)OCO3)[C@H](O)C2=O
Result: no

Task: Outcome? C[C@H]1CC[C@H]2C(=O)O[C@H](COc3ccc(C(C)(C)C)cc3)CN2[C@H]1c1ccc(Br)cc1
Result: yes

Task: Outcome? COc1ccc2c(c1)O[C@@H](c1cccc(C(F)(F)F)c1)[C@H](OC(=O)Nc1ccc(OC(F)F)cc1)C2=O
Result: no

Task: Outcome? CCOC(=O)CNC(=O)O[C@@H]1C(=O)c2cc(OC)ccc2O[C@H]1c1cccc(OC)c1
Result: no

Task: Outcome? COc1cc2c(cc1OC)[C@@H]1O[C@](CCCCN3C(=O)c4ccccc4C3=O)(C2)Oc2c1c(=O)oc1ccccc21
Result: yes

Task: Outcome? COC(=O)N[C@@H](c1cccc(F)c1)[C@]1(C(=O)OC)CCCC1=O
Result: no

Task: Outcome? CC[C@H](C)[C@@H](NC(=O)O[C@H]1C(=O)c2ccc(OC)cc2O[C@@H]1c1ccc2c(c1)OCO2)C(=O)OC
Result: no

Task: Outcome? COC(=O)N[C@@H](c1ccccc1)[C@]1(C(C)=O)CCCC1=O
Result: no

Task: Outcome? O=C1N(Cc2ccc(F)cc2)c2ccccc2[C@@]12O[C@H](COc1ccccc1)CC1CCCC12 (some centres not stated)
Result: no

Task: Outcome? CCCCc1nc2c(c3c1C[C@H](C)OC3)CN(S(=O)(=O)c1ccc(NC(C)=O)cc1)CC2
Result: no

Task: Outcome? C=CCOC(=O)N[C@H](c1ccco1)C(C(C)=O)C(C)=O
Result: no

Task: Outcome? CC(C)(C)c1nc(-c2ccccc2)oc1Nc1ccc2ccccc2c1
Result: yes

Task: Outcome? C#C[C@@H]1C=C[C@H](Oc2ccc(OC)cc2)[C@H](CO)O1
Result: no

Task: Outcome? CCC(=O)OC1(C)C(=O)C=C2C=C(c3ccc(C#N)cc3)OC=C2C1=O (configuration not stated)
Result: no

Task: Outcome? C=C(Nc1ccc(OC)cc1)C(=O)OC
Result: no

---

assay: Secretion counterscreen for inhibitors of the SERCaMP assay screened against the NCATS CANVASS Library (AID 1347390); details: SH-SY5Y constitutive GLuc secretion, luminescence, 20 h; series mostly up to 76.6 µM;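 note: light from luciferase secreted into medium read as a measure of general secretion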
Inconclusive results are not listed. The source made the active and inactive calls. The call rests on the fitted dose curve; in most records, active means well fitted inhibition curve with a large enough effect; inconclusive means small, poorly fitted or top-dose-only effect; inactive means no such curve, though single readings can be large or run the other way.
Would you mind answering with one of these outcomes? true (1) (active), false (0) (inactive)

Please review the entries below; each comes with its answer.
[[record]]
molecule = "CC(C)(Br)[C@@H](Cl)C[C@H](Br)[C@](C)(Cl)/C=C/Br"
group_label = "false (0)"

[[record]]
molecule = "CO[C@@H]1[C@H](O)[C@@H](C)O[C@@H](OC[C@H]2/C=C/C=C/C(=O)C(C)C[C@H](C)C(O[C@@H]3O[C@H](C)CC4(OC(=O)O[C@@H]4C)C3O)[C@@H](C)/C=C/C(=O)OC2C)[C@@H]1OC (stereo not given in full)"
group_label = "false (0)"

[[record]]
molecule = "O=C(O)[C@@]12COC3(O)C1CCN1CC[C@H]3[C@@H]1c1c2[nH]c2ccccc12"
group_label = "false (0)"

[[record]]
molecule = "C=C1C[C@@]23C=CC(=O)[C@@](C)(CCC(=O)Nc4c(O)ccc(C(=O)O)c4O)C2C[C@@H]1CC3 (stereo not given in full)"
group_label = "false (0)"

[[record]]
molecule = "C=C1[C@H]2CC[C@@]3(C=CC(=O)[C@@](C)(CCC(=O)Nc4c(O)ccc(C(=O)O)c4O)C3C2)[C@H]1O (stereo not given in full)"
group_label = "false (0)"


Task: Outcome? CCC[C@@H](C)/C=C(\C)[C@H](O)[C@H](C)/C=C/CC[C@@H](O)[C@H](C)[C@H](O)[C@H](C)[C@H](O)[C@H](C)[C@H]1O[C@H]([C@H](C)C(=O)O)CC[C@@H]1C
Result: true (1)

Task: Outcome? CC(O)/C=C/C1(O)C(C)(C)CC(O)CC1(C)O (stereo not given)
Result: false (0)

Task: Outcome? C[C@@]12CCC[C@@](C)(C(=O)O)[C@H]1CC[C@]13C[C@H]4C[C@H](O[C@@]4(C)C1)[C@H]32
Result: false (0)

Task: Outcome? CC(=O)O[C@H]1CC[C@@]2(C)C(CC[C@]3(C)C2CC=C2C4CC(C)(C)CC[C@]4(C)CC[C@]23C)C1(C)C (stereo not given in full)
Result: false (0)

Task: Outcome? C[C@@H]1C(=O)[C@]23CC[C@H]1C[C@]21O[C@H]2C(C)(C)C=CC(=O)[C@@]23COC1=O
Result: false (0)
